- Test system: TC71 (human ESFT cell line)
- Assay Method Text: IC50 activity in TC71 cells
- Assay type: cell-based
- Measurement Setup: Homo sapiens, TC-71, TC71 cells
Measured Parameter: pIC50
When answering, recall that pIC50 equals minus log10 of the concentration in mol/L, and write that number alone.

Check out these entries, answers already filled in.
COc1ccc(C(=O)CC2(O)C(=O)Nc3c(Cl)ccc(Cl)c32)cc1 (racemic) :: 6.04
O=C(CC1(O)C(=O)Nc2c(Cl)ccc(Cl)c21)c1cccc(Cl)c1 (centres unmarked) :: 4.53

// next entry
Ask | Find the measured pIC50 of COc1ccc(C(=O)/C=C2\C(=O)Nc3c(Cl)ccc(Cl)c32)c(OC)c1 and report it.
Reply | 5.74
